Test system: RARa:RXR (NR concentration 270 nM, RXRa partner concentration 90 nM)
Assay: PBM binding z-score (relative to random genomic background probes); higher = stronger binding; sequences stand for … in GC…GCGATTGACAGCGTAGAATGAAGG
observable: PBM binding z-score
Reply: number alone, nothing else.

Lab note: `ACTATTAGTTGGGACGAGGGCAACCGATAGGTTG` gave PBM binding z-score of 0.451

Looking up `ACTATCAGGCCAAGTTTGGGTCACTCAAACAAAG` , I see its PBM binding z-score listed as 1.83

The sequence `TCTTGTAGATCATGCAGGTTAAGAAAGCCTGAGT` showed PBM binding z-score equal to 0.812

According to the records, this sequence `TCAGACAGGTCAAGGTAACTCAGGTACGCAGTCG` displays PBM binding z-score of 3.37

Lab note: measured PBM binding z-score of `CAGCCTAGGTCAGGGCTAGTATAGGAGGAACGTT` was 1.08

PBM binding z-score for `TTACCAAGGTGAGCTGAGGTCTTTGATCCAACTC` is 2.56

Per the record, `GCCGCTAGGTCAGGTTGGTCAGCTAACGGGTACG` has PBM binding z-score of 0.716

// PBM binding z-score lookup, sequence = `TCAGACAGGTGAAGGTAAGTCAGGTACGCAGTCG` , result: 0.741

PBM binding z-score reported for this sequence `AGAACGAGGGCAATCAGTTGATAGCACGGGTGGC` : 0.384

Noted for `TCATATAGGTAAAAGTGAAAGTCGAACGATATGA` : its PBM binding z-score reads 0.234

Notebook: `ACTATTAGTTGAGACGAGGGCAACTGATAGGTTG` , PBM binding z-score read as 0.44

Noted for `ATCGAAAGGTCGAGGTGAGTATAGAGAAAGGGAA` : its PBM binding z-score reads 3.37

// PBM binding z-score value for `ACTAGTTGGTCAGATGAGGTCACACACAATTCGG` : 4.72

get_value(item= `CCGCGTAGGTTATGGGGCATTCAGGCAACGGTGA` , readout=PBM binding z-score) returns 0.609

Per the record, `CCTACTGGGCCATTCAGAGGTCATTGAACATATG` has PBM binding z-score of 5.13

Recorded result, `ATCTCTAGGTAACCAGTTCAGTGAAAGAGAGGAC` , PBM binding z-score: 1.04

// sample `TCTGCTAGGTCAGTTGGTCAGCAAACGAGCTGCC` , its PBM binding z-score was 0.565

Note to self: PBM binding z-score recorded for `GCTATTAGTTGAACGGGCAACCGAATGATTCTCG` was -0.533

Recorded result, `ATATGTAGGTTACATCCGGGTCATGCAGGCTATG` , PBM binding z-score: 3.55

// PBM binding z-score value for `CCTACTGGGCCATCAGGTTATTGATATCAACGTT` : -0.124

For this sequence ( `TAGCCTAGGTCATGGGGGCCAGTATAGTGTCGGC` ), measured PBM binding z-score is 3.41

In plain terms, `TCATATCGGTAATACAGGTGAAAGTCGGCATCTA` has a documented PBM binding z-score of 0.605

The sequence listed as `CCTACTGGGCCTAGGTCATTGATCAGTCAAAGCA` shows PBM binding z-score equal to 1.57

sequence `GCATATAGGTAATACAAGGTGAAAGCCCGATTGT` , PBM binding z-score observed: 0.973

For record `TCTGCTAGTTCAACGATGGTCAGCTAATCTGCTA` the listed PBM binding z-score is 0.475

So for `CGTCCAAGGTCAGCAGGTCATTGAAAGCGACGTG` , the logged PBM binding z-score turned out to be 5.89
